experiment: AUC in Sprague-Dawley rat at 2 mg/kg, iv by LC-MS/MS analysis; format: ADME, organism-based; set-up: dose 2 mg/kg, route iv; conditions: in vivo
recorded_endpoint: AUC(0-inf)
Could you give the number and then its unit, please?

{"smiles_str": "CC(=O)N1CCN([C@H]2CCC[C@@H](NC(=O)c3cc4c(F)ccc(C)c4[nH]3)C2)CC1", "recorded_result": "2100 ng·h/mL"}

Ask: Suppose we examine the compound CC(=O)N1CCN(c2cccc(NC(=O)c3cc4c(F)ccc(C)c4[nH]3)c2)CC1 ; what AUC(0-inf) value has been reported?
Result: 2300 ng·h/mL

====

experiment: Stability in human hepatocytes assessed as intrinsic clearance at 0.5 uM measured after 120 mins by LC/MS/MS analysis; assay type: ADME, cell-based, Hepatocyte; conditions: read-out: CLH
Please use t for CLint scaled at 0.5 µM under 20 mL/min/kg and f for everything else, ties included.

Some solved cases for reference:
{"smiles_str": "CC(=O)N1CCN(c2cccc(NC(=O)c3cc4c(F)ccc(C)c4[nH]3)c2)CC1", "qualitative_label": "f"}
{"smiles_str": "CC(=O)N1CC[C@H]2[C@@H]1CCN2[C@H]1CCC[C@@H](NC(=O)c2cc3c(F)ccc(C)c3[nH]2)C1", "qualitative_label": "t"}
{"smiles_str": "Cc1ccc(F)c2cc(C(=O)N[C@@H]3CCC[C@H](N4CC[C@H](N(C)S(C)(=O)=O)C4)C3)[nH]c12", "qualitative_label": "f"}
{"smiles_str": "CC(=O)N1CCN([C@H]2CCC[C@@H](NC(=O)c3cc4c(F)ccc(C)c4[nH]3)C2)CC1", "qualitative_label": "t"}
{"smiles_str": "CC(=O)N1CC[C@H]2CN([C@H]3CCC[C@@H](NC(=O)c4cc5c(F)ccc(C)c5[nH]4)C3)C[C@H]21", "qualitative_label": "t"}

In the following, a different compound is considered.
Ask: Confirm or reject: CLint scaled at 0.5 µM of Cc1ccc(F)c2cc(C(=O)N[C@@H]3CCC[C@H](N4CCN5C(=O)CC[C@H]5C4)C3)[nH]c12 lies strictly below 20 mL/min/kg
Result: f

====

test: Apparent permeability across basal to apical side in human Caco-2 cells at 5 uM measured after 2 hrs by LC-MS/MS analysis; format: ADME, cell-based; conditions: caco-2, 2 h
# Papp per record follows

{"smiles_str": "CC(=O)N1CCN([C@H]2CCC[C@@H](NC(=O)c3cc4c(F)ccc(C)c4[nH]3)C2)CC1", "Papp": "20 10^-6 cm/s"}
{"smiles_str": "Cc1ccc(F)c2cc(C(=O)N[C@@H]3CCC[C@H](N4CCN5C(=O)CC[C@H]5C4)C3)[nH]c12", "Papp": "17 10^-6 cm/s"}
{"smiles_str": "CC(=O)N1CCN(c2cccc(NC(=O)c3cc4c(F)ccc(C)c4[nH]3)c2)CC1", "Papp": "5.2 10^-6 cm/s"}
{"smiles_str": "CC(=O)N1CC[C@H]2CN([C@H]3CCC[C@@H](NC(=O)c4cc5c(F)ccc(C)c5[nH]4)C3)C[C@H]21", "Papp": "32 10^-6 cm/s"}
{"smiles_str": "CC(=O)N1CC[C@H]2[C@@H]1CCN2[C@H]1CCC[C@@H](NC(=O)c2cc3c(F)ccc(C)c3[nH]2)C1", "Papp": "22 10^-6 cm/s"}

Ask: Suppose we examine the compound Cc1ccc(F)c2cc(C(=O)N[C@@H]3CCC[C@H](N4CC[C@H](N(C)S(C)(=O)=O)C4)C3)[nH]c12 ; what Papp value has been reported?
Result: 18 10^-6 cm/s

====

assay: Clearance in CD-1 IGS mouse at 1 mg/kg, iv by LC-MS/MS analysis; format: ADME, organism-based; settings: in vivo
recorded_endpoint: clearance (mL/min/kg)
Reply numerically in mL/min/kg, unit not repeated.

Ask: Suppose we examine the molecule Cc1ccc(F)c2cc(C(=O)N[C@@H]3CCC[C@H](N4CCN5C(=O)CC[C@H]5C4)C3)[nH]c12 ; what clearance value has been reported?
Result: 35

====

assay: AUC in CD-1 IGS mouse at 2 mg/kg, iv by LC-MS/MS analysis; assay type: ADME, organism-based; design: dose 2 mg/kg, route iv; settings: in vivo
recorded_endpoint: AUC(0-inf) (ng·h/mL)
Reply numerically in ng·h/mL, unit not repeated.

{"smiles_str": "CC(=O)N1CCN([C@H]2CCC[C@@H](NC(=O)c3cc4c(F)ccc(C)c4[nH]3)C2)CC1", "AUC(0-inf) / ng·h/mL": 800}

Ask: Suppose we examine the molecule CC(=O)N1CCN(c2cccc(NC(=O)c3cc4c(F)ccc(C)c4[nH]3)c2)CC1 ; what AUC(0-inf) value has been reported?
Result: 900

====

assay: Volume of distribution in CD-1 IGS mouse at 1 mg/kg, iv by LC-MS/MS analysis; format: ADME, organism-based; conditions: in vivo, read-out: Vdss
recorded_endpoint: Vd (L/kg)
Reply numerically in L/kg, unit not repeated.

Ask: Suppose we examine the compound Cc1ccc(F)c2cc(C(=O)N[C@@H]3CCC[C@H](N4CCN5C(=O)CC[C@H]5C4)C3)[nH]c12 ; what Vd value has been reported?
Result: 2.9
